The reported measurements were obtained from BindingDB's records for doi:10.1021/cb500956g.

MBT domain-containing protein 1 (Homo sapiens) measurements of IC50, listed per entry.

Reference set, count: 5
smilesRepr: CC(C)(C)NCCCNC(=O)c1ccc(Br)cc1
assayEndpoint: IC50
experimentalResult: > 100 µM

smilesRepr: CC(C)(C)NCCCCCNC(=O)c1cccc(Br)c1
assayEndpoint: IC50
experimentalResult: > 100 µM

smilesRepr: CC(C)(C)NCCCCNC(=O)c1cccc(Br)c1
assayEndpoint: IC50
experimentalResult: > 100 µM

smilesRepr: CC(C)(C)OCCCNC(=O)c1cccc(Br)c1
assayEndpoint: IC50
experimentalResult: > 100 µM

smilesRepr: CC(C)(C)NCCCNC(=O)c1cccc(Br)c1
assayEndpoint: IC50
experimentalResult: > 500 µM

Request: API: value(readout=IC50, system=MBT domain-containing protein 1 (Homo sapiens)) for record `CC(C)(C)N1CCN(C(=O)c2cccc(Br)c2)CC1`
Result: > 100 µM

Request: API: value(readout=IC50, system=MBT domain-containing protein 1 (Homo sapiens)) for record `CC(C)(C)NCCCNC(=O)c1cc(C(F)(F)F)ccn1`
Result: > 100 µM

* * *

PHD finger protein 23 (Homo sapiens, UniProt Q9BUL5) measurements of IC50, listed per entry.
Sequence (Q9BUL5 whole entry): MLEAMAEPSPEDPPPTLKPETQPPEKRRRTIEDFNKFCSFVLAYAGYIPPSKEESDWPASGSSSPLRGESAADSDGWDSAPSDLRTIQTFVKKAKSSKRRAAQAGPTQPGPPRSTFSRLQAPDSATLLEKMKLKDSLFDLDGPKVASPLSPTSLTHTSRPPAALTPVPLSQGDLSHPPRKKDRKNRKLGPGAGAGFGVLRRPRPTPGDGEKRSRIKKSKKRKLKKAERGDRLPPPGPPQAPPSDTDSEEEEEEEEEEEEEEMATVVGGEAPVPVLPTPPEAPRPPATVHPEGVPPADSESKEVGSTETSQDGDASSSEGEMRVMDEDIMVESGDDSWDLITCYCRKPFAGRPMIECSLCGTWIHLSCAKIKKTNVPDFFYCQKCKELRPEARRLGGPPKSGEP

Reference set, count: 5
smilesRepr: CC(C)(C)NCCCNC(=O)c1cccc(Br)c1
IC50: > 500 µM

smilesRepr: CC(C)(C)N1CCN(C(=O)c2cccc(Br)c2)CC1
IC50: > 100 µM

smilesRepr: CC(C)(C)NCCCNC(=O)c1ccccc1Br
IC50: > 100 µM

smilesRepr: CC(C)(C)NCCCNC(=O)c1cc(C(F)(F)F)ccn1
IC50: > 100 µM

smilesRepr: CN(CCCNC(=O)c1cccc(Br)c1)C(C)(C)C
IC50: > 500 µM

Request: Reported IC50 for `CC(C)(C)NCCCCNC(=O)c1cccc(Br)c1` : what is it?
Result: > 100 µM

Request: Reported IC50 for `CC(C)(C)OCCCNC(=O)c1cccc(Br)c1` : what is it?
Result: > 100 µM

Request: Reported IC50 for `CC(C)(C)NCCCNC(=O)c1ccc(Br)cc1` : what is it?
Result: > 100 µM

Request: Reported IC50 for `CC(C)(C)NCCCCCNC(=O)c1cccc(Br)c1` : what is it?
Result: > 100 µM

Request: Reported IC50 for `CC(C)(C)NCCCNC(=O)c1cc(Br)ccn1` : what is it?
Result: > 100 µM

* * *

target: E3 ubiquitin-protein ligase UHRF1 (Homo sapiens, UniProt Q96T88); assay: AlphaScreen Assay; settings: pH 8
Sequence (Q96T88 whole entry): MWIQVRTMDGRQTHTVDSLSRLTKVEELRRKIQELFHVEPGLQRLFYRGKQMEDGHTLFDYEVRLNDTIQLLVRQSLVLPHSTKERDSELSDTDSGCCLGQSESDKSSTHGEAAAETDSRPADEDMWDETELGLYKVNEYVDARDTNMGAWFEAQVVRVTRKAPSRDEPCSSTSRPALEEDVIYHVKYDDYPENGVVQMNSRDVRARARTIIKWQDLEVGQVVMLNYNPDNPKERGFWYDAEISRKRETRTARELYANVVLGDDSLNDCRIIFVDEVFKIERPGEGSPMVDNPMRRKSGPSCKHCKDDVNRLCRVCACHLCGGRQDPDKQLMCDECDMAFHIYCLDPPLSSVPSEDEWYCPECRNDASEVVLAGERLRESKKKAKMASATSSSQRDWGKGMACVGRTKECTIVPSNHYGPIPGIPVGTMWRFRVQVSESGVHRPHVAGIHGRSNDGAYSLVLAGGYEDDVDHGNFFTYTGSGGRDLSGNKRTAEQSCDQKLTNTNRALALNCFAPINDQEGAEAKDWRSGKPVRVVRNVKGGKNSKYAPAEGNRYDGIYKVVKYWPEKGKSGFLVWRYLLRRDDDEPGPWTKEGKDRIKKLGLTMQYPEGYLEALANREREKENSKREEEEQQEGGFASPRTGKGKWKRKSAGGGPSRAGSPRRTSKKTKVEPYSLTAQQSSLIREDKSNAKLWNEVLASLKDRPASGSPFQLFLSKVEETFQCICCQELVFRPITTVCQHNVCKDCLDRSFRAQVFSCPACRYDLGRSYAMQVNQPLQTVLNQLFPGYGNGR
pIC50: −log10 of the molar value.
assayEndpoint: pIC50

Reference set, count: 5
smilesRepr: CC(C)(C)OCCCNC(=O)c1cccc(Br)c1
targetOrSystem: E3 ubiquitin-protein ligase UHRF1 (Homo sapiens, UniProt Q96T88)
pIC50: < 4.00

smilesRepr: CC(C)(C)NCCCCNC(=O)c1cccc(Br)c1
targetOrSystem: E3 ubiquitin-protein ligase UHRF1 (Homo sapiens, UniProt Q96T88)
pIC50: < 4.00

smilesRepr: CC(C)(C)NCCCNC(=O)c1ccccc1Br
targetOrSystem: E3 ubiquitin-protein ligase UHRF1 (Homo sapiens, UniProt Q96T88)
pIC50: < 4.00

smilesRepr: CN(CCCNC(=O)c1cccc(Br)c1)C(C)(C)C
targetOrSystem: E3 ubiquitin-protein ligase UHRF1 (Homo sapiens, UniProt Q96T88)
pIC50: < 3.30

smilesRepr: CC(C)(C)NCCCNC(=O)c1cc(Br)ccn1
targetOrSystem: E3 ubiquitin-protein ligase UHRF1 (Homo sapiens, UniProt Q96T88)
pIC50: < 4.00

Request: Reported pIC50 for `CC(C)(C)NCCCNC(=O)c1ccc(Br)cc1` : what is it?
Result: < 4.00

Request: Reported pIC50 for `CC(C)(C)NCCCCCNC(=O)c1cccc(Br)c1` : what is it?
Result: < 4.00

Request: Reported pIC50 for `CC(C)(C)N1CCN(C(=O)c2cccc(Br)c2)CC1` : what is it?
Result: < 4.00

Request: Reported pIC50 for `CC(C)(C)NCCCNC(=O)c1cc(C(F)(F)F)ccn1` : what is it?
Result: < 4.00

* * *

Measured IC50, listed per entry.
molecular target: Isoform 4 of Lethal(3)malignant brain tumor-like protein 1 (4) (Homo sapiens, UniProt Q9Y468); assay: AlphaScreen Assay; details: pH 8
Sequence (Q9Y468 as listed by the source): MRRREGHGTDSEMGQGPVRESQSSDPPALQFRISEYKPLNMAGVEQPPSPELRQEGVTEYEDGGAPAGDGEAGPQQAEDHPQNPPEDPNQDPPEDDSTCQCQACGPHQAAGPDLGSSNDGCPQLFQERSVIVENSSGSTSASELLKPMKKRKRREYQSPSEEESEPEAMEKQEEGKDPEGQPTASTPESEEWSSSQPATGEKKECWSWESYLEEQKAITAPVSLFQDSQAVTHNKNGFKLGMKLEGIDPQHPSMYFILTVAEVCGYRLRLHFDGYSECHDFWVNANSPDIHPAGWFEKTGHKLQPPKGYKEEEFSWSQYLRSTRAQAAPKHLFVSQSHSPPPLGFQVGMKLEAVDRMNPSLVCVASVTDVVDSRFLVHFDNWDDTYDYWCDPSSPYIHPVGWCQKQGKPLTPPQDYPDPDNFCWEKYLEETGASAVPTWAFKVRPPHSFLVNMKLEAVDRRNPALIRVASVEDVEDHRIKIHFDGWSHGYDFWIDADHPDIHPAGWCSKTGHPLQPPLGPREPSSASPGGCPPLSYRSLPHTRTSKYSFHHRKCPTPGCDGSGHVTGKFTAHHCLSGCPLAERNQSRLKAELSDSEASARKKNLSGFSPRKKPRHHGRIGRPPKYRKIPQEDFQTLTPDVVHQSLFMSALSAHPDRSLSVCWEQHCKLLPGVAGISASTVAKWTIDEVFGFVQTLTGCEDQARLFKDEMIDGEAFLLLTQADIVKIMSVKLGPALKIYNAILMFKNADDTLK

Reference set, count: 5
smilesRepr: CC(C)(C)NCCCCNC(=O)c1cccc(Br)c1
experimentalResult: > 100 µM

smilesRepr: CC(C)(C)NCCCNC(=O)c1ccccc1Br
experimentalResult: > 100 µM

smilesRepr: CC(C)(C)OCCCNC(=O)c1cccc(Br)c1
experimentalResult: > 100 µM

smilesRepr: CC(C)(C)N1CCN(C(=O)c2cccc(Br)c2)CC1
experimentalResult: > 100 µM

smilesRepr: CC(C)(C)NCCCNC(=O)c1cc(Br)ccn1
experimentalResult: > 100 µM

Request: Reported IC50 for `CC(C)(C)NCCCCCNC(=O)c1cccc(Br)c1` : what is it?
Result: > 100 µM

Request: Reported IC50 for `CC(C)(C)NCCCNC(=O)c1cc(C(F)(F)F)ccn1` : what is it?
Result: > 100 µM

Request: Reported IC50 for `CC(C)(C)NCCCNC(=O)c1cccc(Br)c1` : what is it?
Result: > 500 µM

Request: Reported IC50 for `CN(CCCNC(=O)c1cccc(Br)c1)C(C)(C)C` : what is it?
Result: > 500 µM

Request: Reported IC50 for `CC(C)(C)NCCCNC(=O)c1ccc(Br)cc1` : what is it?
Result: > 100 µM

* * *

biological target: Lysine-specific demethylase 5A (Homo sapiens, UniProt P29375)
Sequence (P29375 whole entry): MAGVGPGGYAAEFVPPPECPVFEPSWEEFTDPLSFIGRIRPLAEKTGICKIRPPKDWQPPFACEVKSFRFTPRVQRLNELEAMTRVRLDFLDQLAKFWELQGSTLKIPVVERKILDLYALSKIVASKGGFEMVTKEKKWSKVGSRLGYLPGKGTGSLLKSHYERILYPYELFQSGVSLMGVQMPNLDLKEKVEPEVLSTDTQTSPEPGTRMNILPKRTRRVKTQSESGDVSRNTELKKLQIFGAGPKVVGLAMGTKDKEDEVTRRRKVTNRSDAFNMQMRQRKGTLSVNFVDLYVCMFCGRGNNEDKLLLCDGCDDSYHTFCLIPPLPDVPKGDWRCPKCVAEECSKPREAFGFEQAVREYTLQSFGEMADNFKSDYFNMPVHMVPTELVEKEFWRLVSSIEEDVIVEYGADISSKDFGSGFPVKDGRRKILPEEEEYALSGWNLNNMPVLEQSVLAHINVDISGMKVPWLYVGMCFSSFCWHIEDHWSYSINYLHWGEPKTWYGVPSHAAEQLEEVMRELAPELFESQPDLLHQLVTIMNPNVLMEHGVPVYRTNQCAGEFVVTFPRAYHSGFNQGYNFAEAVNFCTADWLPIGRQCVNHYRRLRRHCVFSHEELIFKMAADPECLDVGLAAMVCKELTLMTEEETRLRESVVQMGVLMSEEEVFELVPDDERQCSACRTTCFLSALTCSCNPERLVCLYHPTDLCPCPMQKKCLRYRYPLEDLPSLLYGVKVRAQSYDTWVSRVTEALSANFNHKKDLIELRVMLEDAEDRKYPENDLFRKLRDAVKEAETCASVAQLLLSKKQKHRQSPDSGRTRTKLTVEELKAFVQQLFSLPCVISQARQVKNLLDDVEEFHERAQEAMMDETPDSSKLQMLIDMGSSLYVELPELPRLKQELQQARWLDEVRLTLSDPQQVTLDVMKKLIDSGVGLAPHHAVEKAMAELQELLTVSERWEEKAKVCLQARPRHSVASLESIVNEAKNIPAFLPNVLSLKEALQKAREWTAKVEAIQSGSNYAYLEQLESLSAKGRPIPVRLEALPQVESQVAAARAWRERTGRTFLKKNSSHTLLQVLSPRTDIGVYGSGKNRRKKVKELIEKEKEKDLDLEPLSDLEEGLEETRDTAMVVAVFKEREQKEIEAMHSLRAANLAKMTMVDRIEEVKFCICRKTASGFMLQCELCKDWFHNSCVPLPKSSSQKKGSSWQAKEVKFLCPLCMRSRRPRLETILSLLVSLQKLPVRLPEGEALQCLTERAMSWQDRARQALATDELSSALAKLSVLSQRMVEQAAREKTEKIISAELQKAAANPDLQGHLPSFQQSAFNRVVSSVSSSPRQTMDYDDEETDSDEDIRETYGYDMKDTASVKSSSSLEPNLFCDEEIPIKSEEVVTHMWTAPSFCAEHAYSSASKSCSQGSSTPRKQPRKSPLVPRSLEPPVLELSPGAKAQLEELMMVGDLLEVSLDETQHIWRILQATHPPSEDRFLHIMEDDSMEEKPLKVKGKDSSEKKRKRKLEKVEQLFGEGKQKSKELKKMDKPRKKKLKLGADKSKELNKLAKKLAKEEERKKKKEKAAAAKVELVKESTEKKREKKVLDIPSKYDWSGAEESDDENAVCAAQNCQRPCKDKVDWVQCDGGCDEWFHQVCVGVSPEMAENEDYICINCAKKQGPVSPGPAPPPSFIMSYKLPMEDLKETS
Measured IC50, listed per entry.

smilesRepr: CC(C)(C)NCCCNC(=O)c1ccccc1Br
targetOrSystem: Lysine-specific demethylase 5A (Homo sapiens, UniProt P29375)
IC50: > 100 µM

Request: API: value(readout=IC50, system=Lysine-specific demethylase 5A (Homo sapiens, UniProt P29375)) for record `CC(C)(C)NCCCNC(=O)c1ccc(Br)cc1`
Result: > 100 µM

Request: API: value(readout=IC50, system=Lysine-specific demethylase 5A (Homo sapiens, UniProt P29375)) for record `CC(C)(C)NCCCNC(=O)c1cc(Br)ccn1`
Result: > 100 µM

* * *

MBT domain-containing protein 1 (Homo sapiens, UniProt Q05BQ5) measurements of pIC50, listed per entry.
Sequence (Q05BQ5 whole entry, the tested form may be a part): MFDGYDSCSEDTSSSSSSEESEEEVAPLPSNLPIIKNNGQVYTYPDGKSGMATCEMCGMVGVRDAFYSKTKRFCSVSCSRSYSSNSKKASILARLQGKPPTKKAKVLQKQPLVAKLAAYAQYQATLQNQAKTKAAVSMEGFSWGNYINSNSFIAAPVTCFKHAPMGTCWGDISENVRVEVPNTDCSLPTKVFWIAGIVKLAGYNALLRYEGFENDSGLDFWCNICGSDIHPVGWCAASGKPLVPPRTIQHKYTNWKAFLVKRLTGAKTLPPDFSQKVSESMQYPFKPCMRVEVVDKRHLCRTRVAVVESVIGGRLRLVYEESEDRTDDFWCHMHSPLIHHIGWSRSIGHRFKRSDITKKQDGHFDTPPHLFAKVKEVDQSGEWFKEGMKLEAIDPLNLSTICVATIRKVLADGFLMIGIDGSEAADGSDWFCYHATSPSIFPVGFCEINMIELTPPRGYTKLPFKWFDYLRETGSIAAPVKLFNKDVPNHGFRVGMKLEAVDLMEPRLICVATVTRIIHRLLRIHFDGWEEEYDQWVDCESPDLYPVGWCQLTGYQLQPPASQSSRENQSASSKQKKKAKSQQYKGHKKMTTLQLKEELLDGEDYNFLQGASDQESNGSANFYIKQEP
pIC50: −log10 of the molar value.

Reference set, count: 2
smilesRepr: CN(CCCNC(=O)c1cccc(Br)c1)C(C)(C)C
targetOrSystem: MBT domain-containing protein 1 (Homo sapiens, UniProt Q05BQ5)
pIC50: < 3.30

smilesRepr: CC(C)(C)NCCCNC(=O)c1cc(Br)ccn1
targetOrSystem: MBT domain-containing protein 1 (Homo sapiens, UniProt Q05BQ5)
pIC50: < 4.00

# context switch: different compound, same pIC50
Request: Reported pIC50 for `CC(C)(C)NCCCNC(=O)c1ccccc1Br` : what is it?
Result: < 4.00
